system: K4 kissing-loop RNA reporter; experiment: apparent KD of K4 kissing-loop reporter; higher = weaker reporter binding; conditions: Eterna round: R107; input ligand: arginine 13.2 mM;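 also: bound reporter read as fluorescence of individual clusters on recovered sequencing chips by microscopy, with normalized cluster intensities fitted with a binding model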
Provide the reported apparent KD of K4 kissing-loop reporter of each item.
One number for each entry, in nM.

As a guide, the following entries are already answered.
- Chain sequence: "AGCUCAGAGUGACUCGAUAAGAGUCACAAACGAGGACCGGUACGGCCGCCACUCGAAAUAACGAGAGUGAUGUUCUCGCUGGGCA [FiskerMod 1 - Jieux - Same State Tryptophan A]"
  apparent KD of K4 kissing-loop reporter / nM: 463
- Chain sequence: "GCUACUGCCUUAGGAUAUAGUUGAGUGAUGUUCAAGCAUAUGCAUGGGAAAACCAUGCAUAUGUCCCUAGAAGGGAGGCAGUAGC"
  apparent KD of K4 kissing-loop reporter / nM: 627

Kindly consider the entry below.
The sequence listed as UGAUACCAGACUGAUACCAGCGAGUGAUGUUUGCUGAUCUAAAGCAGUCAAAGACUGCCUUGCCCUUGGCAGCAGUCUGGUAUCU [TheoBX 26 #SwitchBubble #StaticStem] shows apparent KD of K4 kissing-loop reporter equal to 235

----------
Task for the reader: assign each of the following sequences its reported apparent KD of MS2 coat protein.
tested on: MS2 coat protein; test: apparent KD of MS2 coat protein; higher = weaker reporter binding; settings: Eterna round: R107; input ligand: theophylline 20 uM
Answers are plain numbers, in nM.

Study these solved cases before continuing.
- Chain sequence: "UAUUUUGUGAUGGAUACCAGCAGAGAAAACGUUUAUCCUAACAUGAGGAUCACCCAUGUAUGCCCUUGGCAGCUGUUGUGGGAUA [8.Q]"
  Uom: "nM"
  apparent KD of MS2 coat protein: 42
- Chain sequence: "GCGUCGGUCGGAAGGAGCGACAUGAGGAUCACCCAUGUCUCCCGUUAUGGGAGUUCCUUAGGUCAGGUAGGUCGCCGACGGACGC [#1 Exclusion - Arginine B Attempt #19 (Inspired by Omei)]"
  Uom: "nM"
  apparent KD of MS2 coat protein: 190
- Chain sequence: "UGUAUGUGAUUUGAUACCAGACCAGCUGGUGUUAGAUGAGGAUCACCCAUCUAGGUUUGGGUCCCUUGGCAGCAAAUCGCAUACU [SS Theo B #24 Ms13]"
  Uom: "nM"
  apparent KD of MS2 coat protein: 22.1
- Chain sequence: "GCGAUGGAGCGAAGGAGCGGCUGUGACUACAUGAGGAUCACCCAUGUACGAUCGUAAGGUAGCCAGGUAGGUCGCGCUCCAUCGC [SSAB NP+V+V2 #17]"
  Uom: "nM"
  apparent KD of MS2 coat protein: 41.8
- Chain sequence: "CGAUUUAAGACGGCCGCCACUAUUAAGUAACAAAAUAAACAUGAGGAUCACCCAUGUACAUGGGAUAGGACCGGGUCCAAUAUCG [A2]"
  Uom: "nM"
  apparent KD of MS2 coat protein: 79.7
- Chain sequence: "AAUUAUCAGUCGGCCGCCACUGACACAUGAGGAUCACCCAUGUAACUUGGGAUAAAUUUAAUAAACAGGACCGGGACAAAGGCUA [JR_ExcTryptoB_Sub011]"
  Uom: "nM"
  apparent KD of MS2 coat protein: 50.7

Kindly give each listed record's apparent KD of MS2 coat protein.
1. AUUGGGUUAUCAGAUACCAGACUAUUCUAGACAUGAGGAUCACCCAUGUAUUGGGUUUUCGUCCCUUGGCAGCUGUUAAGUUUAA [JR_SSTheophyB_Sub005]
2. AAAAUAAAGGCGGCCGCCACUAGAGUUAGGCUUAUGUACUGGGUAACAUGAGGAUCACCCAUGUAUAGGACCGGGCCAUAAUAAA [Same State - Tryptophan B (Freestyle 2)]
3. GGGCAAGAGGGAAGGAGCGUCAGCUGAGUCACAUGAGGAUCACCCAUGUCGCACAUAGUGUGACAGGUAGGUCGCCCUCUGCCCU [Zaistiqu]
4. AUGGUUGUCGCGGCCGCCACUGUCGGCCGCCACUAAACAUGAGGAUCACCCAUGUAGGACCGGGACAGGACCGGGUGAUAACCAC [TryBS - #DoubleAptamer 3]

Ans:
1: 195; 2: 82.1; 3: 158; 4: 33.9

Reported apparent KD of MS2 coat protein (MS2 coat protein) for entry GGUGGCUGGACUGAUACCAGCCACCACCGAUAGACCACAUGAGGAUCACCCAUGUUGGGUGGCCCUUGGCAGCAGUCUAGCUGCC [#1 Same State - Theophylline B Attempt #11 (HarryS)] is 727

----------
Give measured apparent KD of MS2 coat protein for each item. Keep answers brief.
test system: MS2 coat protein; assay: apparent KD of MS2 coat protein; designed switch direction (-1 OFF switch, 1 ON switch): -1; higher = weaker reporter binding; settings: input ligand: none
I'd appreciate it if you included the unit after the number.

Example cases with answers are listed next.
- Chain sequence: "AUACAGGAAGGAUAUACAUGAGGAUCACCCAUGUAGGAAAACCUACCAAAAGACCCAAGUAGAAGGUCCGAUAC [jl-ex3-4.74 ViennaUCT mod] (Eterna round: R97, puzzle: Exclusion 3)"
  apparent KD of MS2 coat protein: "0.0194 µM"
- Chain sequence: "UUGAAACAUACCUCCAUAAACAUGAGGAUCACCCAUGUAAGUGAGGAUAUAGAUUGAUUAGUAUACUAGAAGGCACUUAGAUAU [JR_ExcNG3_Sub043] (Eterna round: R96, puzzle: Exclusion NG 3)"
  apparent KD of MS2 coat protein: "0.0105 µM"
- Chain sequence: "UUUAGUUCAGGAUAUGUAGACAUUAACAUGAGGAUCACCCAUGUAGAUCCUGAAUUGACUACAGAAGGGAGCAUUU [Mod of Brourd 9 - Jieux - Exclusion 5] (Eterna round: R97, puzzle: Exclusion 5)"
  apparent KD of MS2 coat protein: "0.0239 µM"
- Chain sequence: "UACAAGCUUUUAAGAUCCCACAUGAGGAUCACCCAUGUGCUCGUCUUGUAACGUACUGUGACGAAAGUCACGGUACG [JL TOV1 3.23] (Eterna round: R97, puzzle: Sensor, turn-off variant 1)"
  apparent KD of MS2 coat protein: "0.0275 µM"

Per the record, GACAUGAGGAUCACCCAUGUAACCUCAUGUAGGAAGGAGAGUAAGGAUAUAUAUGAAGGAAUGAAGUAGAAGGUGCAUAGAGAG [Default title] (Eterna round: R96, puzzle: Exclusion NG 3) has apparent KD of MS2 coat protein of 0.854 µM

----------
system: MS2 coat protein; assay: apparent KD of MS2 coat protein; higher = weaker reporter binding; settings: Eterna round: R107; input ligand: tryptophan 2.4 mM
Grouping key: apparent KD of MS2 coat protein. Bins: label 0 (below 20 nM), label 1 (20 nM to below 40 nM), label 2 (40 nM or more)

Completed entries (count: 10):
- Chain sequence: "GUAAUGAUAAGAAGGAGCGUCGAAAAUGGGUAAACAUGAGGAUCACCCAUGUAAAGGGAACGACAGGUAGGUCGCUUAUUAUUAC [AstromonsSSArgB#21]"
  Class name: "label 2"
- Chain sequence: "AUACAUGAGGAUCACCCAUGUCAUACAGAAGGAGCGUCACAUAAGACAGGUAGGUCGCUGAUAAAUGGAUUAUAGUUUAUGAUUA [JR_SSArginiA_Sub016]"
  Class name: "label 0"
- Chain sequence: "ACACAUGAGGAUCACCCAUGUUGCAUAGAUACCAGAUAACGUGAGAUCCCUUGGCAGCUAACUGCAUGAACUUGACAUGCAUCAU [Same State Theophylline A 2]"
  Class name: "label 2"
- Chain sequence: "AGCCCUGUGCUAGAUACCAGCUACAUGAGGAUCACCCAUGUGCGUCAGAAAUGACUGUGUAGCCCUUGGCAGCUAAAUGCAUGUA [Exclusion - Theophylline B (Freestyle 7)]"
  Class name: "label 0"
- Chain sequence: "GCUGCUUUGGGAAGGAGCGCUGCGUUAUCAUGUUGGACAUGAGGAUCACCCAUGUAAAUGUAGCAGGUAGGUCGCUUAGGGCAGC [EAP NP+V+V2 #15]"
  Class name: "label 1"
- Chain sequence: "GAUGAUAUUGCAGAUACCAGACACAUGAGGAUCACCCAUGUCGUUGGGUCGCUGGGUCGUGUCCCUUGGCAGCUGCGAUAUCAUC [#04 Exclusion-TheophyllineB]"
  Class name: "label 1"
- Chain sequence: "ACAUUUAACUGAAGGAGCGUGAUAUACAUGAGGAUCACCCAUGUGUCUUACAUGAAUAAUUCACAGGUAGGUCGCAGACUAAUGA [JR_ExcArginiB_Sub009]"
  Class name: "label 1"
- Chain sequence: "AUGCCUAGUGGAAGGAGCGAGGGUCUUCUCAACAUGAGGAUCACCCAUGUUCUUUUACACCCUCAGGUAGGUCGCCAUUGGGACA [Biraanve]"
  Class name: "label 2"
- Chain sequence: "AGACAUGAGGAUCACCCAUGUAGUACGGAUACCAGAUCCAGAUGUAUCCCUUGGCAGCUGUGGUACAGCGUUGCAACGCUCCUAG [Exclusion - Theophylline A (Freestyle 18)]"
  Class name: "label 0"
- Chain sequence: "CAAUUUAGAAAACUAAAUUGAGUGGGUGAACGAGGACCGGUACGGCCGCCACUCGGACAUGAGGAUCACCCAUGUCCAUGUGAAA [AstrosExyTryA#23]"
  Class name: "label 1"

Consider now this further sequence.
Q: Class? Entry: AAUACAUGAGGAUCACCCAUGUAAGCUGAAGGAGCGCUGGAAACAGCAGGUAGGUCGCAGCUGCGACCUUGGUGAUCUAGGUCGC [(M1)-(M2)-(Arg1)-(Arg2)-(A)'-(M)'-(A)''_Design7]
Ans: label 1

Just for reference, the supplement of paper PMC9170038 is where these values come from.
